molecular target: thrombin (alpha-thrombin) (UniProt P00734;P00734 315-363;364-622); assay: filter binding; Nitrocellulose filter binding, 32P 5'-labelled aptamer (500 CPM/uL), selection buffer (composition not given), 5 min at room temperature, n = 2
RECORDED_METRIC: Kd (nM)
Give bare numbers, in nM.

Look up Kd: GGTTGGTGTGGTTGG (structured_DNA) [HD1]
110
